# Test system: L1210 leukemia ip in BDF1 mice, survival T/C
# method.description: NCI In Vivo Anticancer Drug Screen. Data for tumor model L1210 Leukemia (intraperitoneal) in B6D2F1 (BDF1) mice
# condition.notes: endpoint: mean survival time; dose: 400.0 mg/kg/injection; schedule: Q01DX001 (ip); vehicle: carboxymethylcellulose (CMC); higher = longer survival
# Method: The antitumor activity of compounds was measured in mice bearing transplantable tumors. Survival or tumor size were measured and the results are expressed as the measurement made in the treated group (T) divided by the measurement made in the vehicle treated control group (C). The tumor model used in this assay is L1210 Leukemia (intraperitoneal) in B6D2F1 (BDF1) mice
Toxic doses and inconclusive results are not listed.
measured.property: T/C

{"columns": ["compound", "T/C"],
 "data": [
  ["CCCCCC/C(=C\\c1ccc(O)cc1)C(=O)O", "100 % of control"],
  ["NNc1cc(=O)n2ccccc2n1", "101 % of control"],
  ["Cc1c2c(c(C)c3c1[nH]c1ccccc13)CCN=C2", "111 % of control"],
  ["CC1=C(C(=O)O)C(C)CC(=O)N1c1ccccc1 (stereo not drawn)", "96 % of control"],
  ["O=[N+]([O-])c1ccc(C2OCCO2)cc1", "96 % of control"],
  ["COc1cc(N(CCCl)CCCl)ccc1/C=N/Nc1nncn1N", "104 % of control"],
  ["CN(C)c1c(-c2ccccc2)cc(-c2ccccc2)[nH]c1=O", "88 % of control"]
]}

Here is the next item to consider.
Please supply the value of reported T/C for the item Nc1cc(Br)cc2c1-c1ccc(Br)cc1C2 102 % of control

* * *

So I've got a bunch of compounds here, and I need their T/C values.
# System: L1210 leukemia ip in BDF1 mice, survival T/C
# method.description: NCI In Vivo Anticancer Drug Screen. Data for tumor model L1210 Leukemia (intraperitoneal) in B6D2F1 (BDF1) mice
# condition.notes: endpoint: mean survival time; dose: 100.0 mg/kg/injection; schedule: Q04DX003 (ip); vehicle: saline with Tween-80; higher = longer survival
Toxic doses and inconclusive results are not listed.

// below: answered compounds
{"columns": ["compound", "target.or.test.system", "T/C"],
 "data": [
  ["O=C(O)c1ccccc1Nc1cccc(C(F)(F)F)c1", "L1210 leukemia ip in BDF1 mice, survival T/C", "104 % of control"],
  ["c1ccc2c(-c3nc4ccccc4[nH]3)cccc2c1", "L1210 leukemia ip in BDF1 mice, survival T/C", "93 % of control"],
  ["CC(=O)c1cccc([N+](=O)[O-])c1", "L1210 leukemia ip in BDF1 mice, survival T/C", "105 % of control"],
  ["COc1ccc(NC(=O)Nc2cc(Cl)ccc2Cl)cc1", "L1210 leukemia ip in BDF1 mice, survival T/C", "90 % of control"],
  ["OC(Cc1nccc2ccccc12)(C(F)(F)F)C(F)(F)F", "L1210 leukemia ip in BDF1 mice, survival T/C", "100 % of control"],
  ["C=CCCCCCCCCC(N)=O", "L1210 leukemia ip in BDF1 mice, survival T/C", "101 % of control"]
]}

Give one value of T/C per listed compound.
1. O=Cc1ccc([N+](=O)[O-])s1
2. Cc1ccc(Nc2ccc(Nc3ccc(C)cc3)c3c2C(=O)c2ccccc2C3=O)cc1
3. CC(=O)C(C(=N)C#N)C(=O)Nc1ccccc1 (centres undefined)
4. CC1=NN(c2ccc(S(=O)(=O)O)cc2Cl)C(=O)C1
5. CC(=O)Nc1ccc2c(c1)OCO2
6. Cc1ccc(C)c(NC(=O)OCc2ccco2)c1
7. CC(C)(C1c2ccccc2C(=NO)c2ccccc21)[N+](=O)[O-] (centres undefined)
8. C(/C=C\c1ccccc1)=Nc1ccccc1

1. 102 % of control
2. 86 % of control
3. 101 % of control
4. 101 % of control
5. 107 % of control
6. 105 % of control
7. 95 % of control
8. 95 % of control

Below is a list of compounds. For each, state its recorded T/C.
1. CCCCCCCCCCCCOc1ccc(C)cc1
2. COc1ccc(C(=O)C(C)C=O)c(OCc2ccccc2)c1OC (centres undefined)
3. CC1=CC(=O)C(C)(C(Cl)Cl)C=C1 (centres undefined)
4. CCCCCCCCCCCCCCCCCCN1C(=O)C2C(C1=O)C1(Cl)C(Cl)=C(Cl)C2(Cl)C1(Cl)Cl (centres undefined)
5. NC(=O)c1ccc([N+](=O)[O-])s1

1. 88 % of control
2. 114 % of control
3. 95 % of control
4. 96 % of control
5. 96 % of control
